experiment: Metabolic stability in mouse plasma assessed as esterase-mediated compound hydrolysis by measuring compound half life by HPLC analysis; type: ADME
Item-by-item account of t1/2
Answer format: numeric, min implied, no suffix.

CC1=CC[C@@H]2[C@@H](C1)c1c(O)cc(C(C)(C)C(=O)OCCCCBr)cc1OC2(C)C	12.9

// query Can you share its t1/2? I mean this compound: CC1=CC[C@@H]2[C@@H](C1)c1c(O)cc(C3(C(=O)OCCCCBr)CCC3)cc1OC2(C)C
// result 47.9

// query Next up: CC1=CC[C@@H]2[C@@H](C1)c1c(O)cc(CC(=O)OCCCCC#N)cc1OC2(C)C
// result 3.2

// query Next up: CCCCOC(=O)C1(c2cc(O)c3c(c2)OC(C)(C)[C@@H]2CC=C(C)C[C@@H]32)CCC1
// result 36.3

// query Next up: CCCSC(=O)C(C)(C)c1cc(O)c2c(c1)OC(C)(C)[C@@H]1CC=C(C)C[C@@H]21
// result 312

// query Next up: CC1=CC[C@@H]2[C@@H](C1)c1c(O)cc(CC(=O)OCCCCBr)cc1OC2(C)C
// result 1.7

// query Next up: CC1=CC[C@@H]2[C@@H](C1)c1c(O)cc(C(C)(C)C(=O)OCCCCC#N)cc1OC2(C)C
// result 40.4

// query Next up: CCCCOC(=O)C(C)(C)c1cc(O)c2c(c1)OC(C)(C)[C@@H]1CC=C(C)C[C@@H]21
// result 12.4

----------
Values of pKi reported for Cannabinoid receptor 2 (Mus musculus) appear below.
// returns pKi (minus log10 of molar concentration), number only

// query Please state recorded pKi (tested on Cannabinoid receptor 2 (Mus musculus)) of CC1=CC[C@@H]2[C@@H](C1)c1c(O)cc(C(C)(C)C(=O)OCCCn3ccnc3)cc1OC2(C)C
Sequence (P47936 whole entry): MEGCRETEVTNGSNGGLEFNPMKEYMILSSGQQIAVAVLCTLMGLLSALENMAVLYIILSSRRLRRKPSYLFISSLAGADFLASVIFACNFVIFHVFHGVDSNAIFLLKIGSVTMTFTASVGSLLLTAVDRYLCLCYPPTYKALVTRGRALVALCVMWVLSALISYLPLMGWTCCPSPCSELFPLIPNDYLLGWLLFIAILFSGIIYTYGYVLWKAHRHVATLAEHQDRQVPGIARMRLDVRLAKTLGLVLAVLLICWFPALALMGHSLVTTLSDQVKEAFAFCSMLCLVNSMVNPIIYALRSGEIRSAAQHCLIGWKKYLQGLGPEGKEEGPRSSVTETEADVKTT
// result 8.68

// query Next up: CCCCC(=O)OCC(C)(C)c1cc(O)c2c(c1)OC(C)(C)[C@@H]1CC=C(C)C[C@@H]21
// result 8.92

// query Next up: COC(=O)C(C)(C)c1cc(O)c2c(c1)OC(C)(C)[C@@H]1CC=C(C)C[C@@H]21
// result 7.43

// query Next up: CC1=CC[C@@H]2[C@@H](C1)c1c(O)cc(C(C)(C)C(=O)OCCCCC#N)cc1OC2(C)C
// result 10.00

// query Next up: CC1=CC[C@@H]2[C@@H](C1)c1c(O)cc(C(C)(C)C(=O)OCCCCn3ccnc3)cc1OC2(C)C
// result 8.09

// query Next up: CC1=CC[C@@H]2[C@@H](C1)c1c(O)cc(C(C)(C)C(=O)OCCCCBr)cc1OC2(C)C
// result 9.05

// query Next up: CC1=CC[C@@H]2[C@@H](C1)c1c(O)cc(C(C)(C)C(=O)OCCCCCBr)cc1OC2(C)C
// result 8.96

// query Next up: CCCSC(=O)C(C)(C)c1cc(O)c2c(c1)OC(C)(C)[C@@H]1CC=C(C)C[C@@H]21
// result 9.10

// query Next up: CC1=CC[C@@H]2[C@@H](C1)c1c(O)cc(C(C)(C)C(=O)OCCCC#N)cc1OC2(C)C
// result 9.10

----------
molecular target: Cannabinoid receptor 1 (Rattus norvegicus); experiment: Agonist activity at CB1 receptor in rat brain membranes assessed as reduction in forskolin-stimulated cAMP level measured from 3 data points after 30 mins; format: functional, cell membranes, Membrane
Sequence (P20272 whole entry): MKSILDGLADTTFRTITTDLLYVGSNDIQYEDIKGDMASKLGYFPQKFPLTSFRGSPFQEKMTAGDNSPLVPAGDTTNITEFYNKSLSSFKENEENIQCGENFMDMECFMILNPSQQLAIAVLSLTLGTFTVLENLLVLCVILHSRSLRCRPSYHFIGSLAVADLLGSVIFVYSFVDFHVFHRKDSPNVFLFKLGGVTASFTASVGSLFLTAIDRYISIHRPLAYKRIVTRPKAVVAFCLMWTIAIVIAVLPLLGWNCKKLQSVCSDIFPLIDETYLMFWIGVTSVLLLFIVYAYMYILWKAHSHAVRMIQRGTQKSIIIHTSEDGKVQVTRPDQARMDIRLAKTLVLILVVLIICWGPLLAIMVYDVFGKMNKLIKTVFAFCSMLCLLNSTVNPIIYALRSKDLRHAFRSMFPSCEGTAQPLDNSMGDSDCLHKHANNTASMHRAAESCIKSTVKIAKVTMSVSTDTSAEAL
pEC50: −log10 of the molar value.
measure: pEC50

As a guide, the following entries are already answered.
CC1=CC[C@@H]2[C@@H](C1)c1c(O)cc(C(C)(C)C(=O)OCCCn3ccnc3)cc1OC2(C)C	8.00 to 9.00
CC1=CC[C@@H]2[C@@H](C1)c1c(O)cc(C3(C(=O)OCCCCC#N)CCC3)cc1OC2(C)C	8.00 to 9.00
CC1=CC[C@@H]2[C@@H](C1)c1c(O)cc(C(C)(C)C(=O)OCCCCC#N)cc1OC2(C)C	8.00 to 9.00
CCCCOC(=O)C1(c2cc(O)c3c(c2)OC(C)(C)[C@@H]2CC=C(C)C[C@@H]32)CCC1	> 9.00

// query Can you share its pEC50? I mean this compound: CC1=CC[C@@H]2[C@@H](C1)c1c(O)cc(CC(=O)OCCCCC#N)cc1OC2(C)C
// result 7.00 to 8.00

// query Next up: CCOC(=O)C(C)(C)c1cc(O)c2c(c1)OC(C)(C)[C@@H]1CC=C(C)C[C@@H]21
// result 8.00 to 9.00

// query Next up: CCCCCNC(=O)C(C)(C)c1cc(O)c2c(c1)OC(C)(C)[C@@H]1CC=C(C)C[C@@H]21
// result 8.00 to 9.00

// query Next up: CC1=CC[C@@H]2[C@@H](C1)c1c(O)cc(C(C)(C)C(=O)OCCCC#N)cc1OC2(C)C
// result > 9.00

// query Next up: CCCCOC(=O)C(C)(C)c1cc(O)c2c(c1)OC(C)(C)[C@@H]1CC=C(C)C[C@@H]21
// result > 9.00

----------
Item-by-item account of t1/2
test: Metabolic stability in mouse plasma assessed as esterase-mediated compound hydrolysis by measuring compound half life by HPLC analysis; type: ADME
Answer format: numeric, h implied, no suffix.

CC1=CC[C@@H]2[C@@H](C1)c1c(O)cc(C(C)(C)C(=O)OCCCCn3ccnc3)cc1OC2(C)C	6.53

// query Can you share its t1/2? I mean this compound: CC1=CC[C@@H]2[C@@H](C1)c1c(O)cc(C3(C(=O)OCCCCC#N)CCC3)cc1OC2(C)C
// result 1.92

// query Next up: CCCCOC(=O)Cc1cc(O)c2c(c1)OC(C)(C)[C@@H]1CC=C(C)C[C@@H]21
// result 0.012

// query Next up: CC1=CC[C@@H]2[C@@H](C1)c1c(O)cc(C(C)(C)C(=O)OCCCn3ccnc3)cc1OC2(C)C
// result 4.52

// query Next up: CC1=CC[C@@H]2[C@@H](C1)c1c(O)cc(C(C)(C)C(=O)OCCCC#N)cc1OC2(C)C
// result 0.775

// query Next up: CCCCC(=O)OCC(C)(C)c1cc(O)c2c(c1)OC(C)(C)[C@@H]1CC=C(C)C[C@@H]21
// result 0.158

----------
Values of Ki reported for Cannabinoid receptor 2 (Homo sapiens) appear below.

As a guide, the following entries are already answered.
CC1=CC[C@@H]2[C@@H](C1)c1c(O)cc(C(C)(C)C(=O)OCCBr)cc1OC2(C)C	2.9 nM
COC(=O)C(C)(C)c1cc(O)c2c(c1)OC(C)(C)[C@@H]1CC=C(C)C[C@@H]21	34.5 nM
CC1=CC[C@@H]2[C@@H](C1)c1c(O)cc(C(C)(C)CO)cc1OC2(C)C	> 10000 nM
CCCSC(=O)C(C)(C)c1cc(O)c2c(c1)OC(C)(C)[C@@H]1CC=C(C)C[C@@H]21	0.7 nM
CC1=CC[C@@H]2[C@@H](C1)c1c(O)cc(C(C)(C)C(=O)OCCCCn3ccnc3)cc1OC2(C)C	7.7 nM

// query Can you share its Ki? I mean this compound: CC1=CC[C@@H]2[C@@H](C1)c1c(O)cc(C(C)(C)C(=O)OCCCCCBr)cc1OC2(C)C
// result 0.6 nM

// query Next up: CCCCC(=O)OCC(C)(C)c1cc(O)c2c(c1)OC(C)(C)[C@@H]1CC=C(C)C[C@@H]21
// result 1 nM

// query Next up: CC1=CC[C@@H]2[C@@H](C1)c1c(O)cc(C(C)(C)C(=O)OCCCn3ccnc3)cc1OC2(C)C
// result 1.3 nM

// query Next up: CC1=CC[C@@H]2[C@@H](C1)c1c(O)cc(C(C)(C)C(=O)OCCCCC#N)cc1OC2(C)C
// result 0.9 nM

// query Next up: CC1=CC[C@@H]2[C@@H](C1)c1c(O)cc(C(C)(C)C(=O)OCCCBr)cc1OC2(C)C
// result 0.7 nM

// query Next up: CC1=CC[C@@H]2[C@@H](C1)c1c(O)cc(C(C)(C)C(=O)OCCCCBr)cc1OC2(C)C
// result 0.8 nM
